Quick list: plaque count per well per entry.
test system: Toxoplasma gondii RH tachyzoites; experiment: plaque count per well; higher = less inhibition; extreme values may be limits of the assay; details: 10 µM; 8-10 days
parameter measured: plaque count per well

1. CC1=C(CC(=O)c2cccc([N+](=O)[O-])c2)C(=O)c2ccccc2C1=O | 0
2. Cc1ccc(C(=O)c2oc3ccc4c(C)cc(=O)oc4c3c2C)cc1 | 24
3. c1ccc(-c2ccc(-c3nc4ccccc4[nH]3)cc2)cc1 | 0
4. CCOc1ccccc1NC(=O)CN1CCN(C(=O)c2ccco2)CC1 | 35
5. Cc1ccc(Nc2nc(NCCO)c3ccccc3n2)cc1C | 0
6. CC(=O)Nc1nnc(SCc2c(C)cc(C(C)(C)C)cc2C)s1 | 21
7. CCOc1cc(Cl)c(C(C)NC(=O)c2cccc(OC)c2)cc1OCC (stereo not drawn) | 25
8. COc1ccc(C(=O)C(CCC(CNC(C)(C)C)C(=O)c2ccc(OC)cc2)CNC(C)(C)C)cc1 (stereo not drawn) | 0
9. COc1ccccc1N1CCN(C(CNS(=O)(=O)c2ccc(Cl)cc2)c2cccnc2)CC1 (stereo not drawn) | 34
10. Cc1cccc(Nc2nc(N)c3ccccc3n2)c1 | 0
11. O=C(Nc1ccsc1C(=O)NC1CCCCC1)c1ccc(F)cc1 | 20
12. CCc1ccc(Nc2cc(C)nc3nc(C)nn23)cc1 | 27
13. CCN(CC)CCNc1ncnc2c1[nH]c1ccc(Br)cc12 | 26
14. CCc1ccc(CNCC(O)c2ccccc2)cc1 (stereo not drawn) | 21
15. COc1ccc(C2N(C)c3ccccc3N2C)cc1 | 28
16. O=C(NC1CCN(Cc2ccccc2)CC1)c1cc(-c2cccnc2)nc2ccc(Cl)cc12 | 34
17. CCCCCCc1cc2cc(-c3nc4ccccc4[nH]3)c(=Nc3ccccc3C)oc2cc1O | 3
18. CCn1c2c(c(=N)c3c1CCC3)CCCC2 | 34
19. CN(C)c1ccc(N2C(N)=NC(N)=NC2(C)C)cc1 | 23
20. COc1ccc(CCN2C(=O)c3[nH]nc(-c4cc(Cl)c(C)cc4O)c3C2c2ccccc2F)cc1 (stereo not drawn) | 0
21. Oc1ccc(Br)cc1CN1CCN(Cc2cccc(F)c2)CC1 | 21
22. C[n+]1c2ccccc2nc2ccc(NCCO)cc21 | 0
23. CN1CCN(c2nc(Nc3ccc(O)cc3)nc3ccccc23)CC1 | 29
